Each record here notes measured Activity.
Method Notes: Antioxidant activity of compound assessed as trolox equivalent antioxidant capacity by ORAC-FL assay
Assay type: functional

# Molecule, Activity
data = [
    ("CCN(CC)CCCOc1ccc(C(=O)/C=C/c2ccc(N(C)C)cc2)c(O)c1", 1.2),
    ("CCN(CCCOc1ccc(C(=O)/C=C/c2ccc(N(C)C)cc2)c(O)c1)Cc1ccc(N(C)C)cc1", 1.3),
    ("CCN(CCCCOc1ccc(C(=O)/C=C/c2ccc(N(C)C)cc2)c(O)c1)Cc1ccccc1OC", 1.4),
    ("CCN(CCCCOc1ccc(C(=O)/C=C/c2ccc(N(C)C)cc2)c(O)c1)Cc1ccc(N(C)C)cc1", 1.5),
    ("CN(C)c1ccc(/C=C/C(=O)c2ccc(N(C)C)cc2O)cc1", 1.7),
    ("CCN(CCCCCCOc1ccc(C(=O)/C=C/c2ccc(N(C)C)cc2)c(O)c1)Cc1ccc(N(C)C)cc1", 1.4),
    ("CCN(CCCOc1ccc(C(=O)/C=C/c2ccc(N(C)C)cc2)c(O)c1)Cc1ccccc1OC", 1.5),
    ("CCN(CCCCOc1ccc(/C=C/C(=O)c2ccc(N(C)C)cc2O)cc1)Cc1ccccc1N(C)C", 1.5),
    ("CCN(CCCOc1ccc(C(=O)/C=C/c2ccccc2)c(O)c1)Cc1ccccc1N(C)C", 1.3),
    ("CCN(CCCCOc1ccc(/C=C/C(=O)c2ccc(N(C)C)cc2O)cc1)Cc1ccccc1OC", 1.6),
    ("CCN(CCCCCCOc1ccc(C(=O)/C=C/c2ccc(N(C)C)cc2)c(O)c1)Cc1ccccc1", 1.4),
    ("CCN(CCCCOc1ccc(C(=O)/C=C/c2ccc(N(C)C)cc2)c(O)c1)Cc1ccccc1", 1.5),
    ("COc1ccc(C(=O)/C=C/c2ccc(N(C)C)cc2)c(O)c1", 1.2),
    ("CCN(CCCCCCOc1ccc(C(=O)/C=C/c2ccc(N(C)C)cc2)c(O)c1)Cc1ccccc1OC", 1.4),
    ("CCN(CCCOc1ccc(C(=O)/C=C/c2ccc(N(C)C)cc2)c(O)c1)Cc1ccccc1", 1.6),
    ("COc1ccc(/C=C/C(=O)c2ccc(N(C)C)cc2O)cc1", 1.5),
    ("CCN(CCCCOc1ccc(C(=O)/C=C/c2ccc(N(C)C)cc2)c(O)c1)Cc1ccccc1N(C)C", 2.1),
    ("CCN(CCCOc1ccc(C(=O)/C=C/c2ccc(N(C)C)cc2)c(O)c1)Cc1ccccc1N(C)C", 2.1),
    ("CCN(CCCCCCOc1ccc(C(=O)/C=C/c2ccc(N(C)C)cc2)c(O)c1)Cc1ccccc1N(C)C", 2),
]

====

Organism: Homo sapiens
Method Notes: Selectivity index, ratio of IC50 for recombinant human MAO-A to IC50 for recombinant human MAO-B
Measurement Name: Selectivity Index

# Molecule, Measurement Name, Obs Value
rows = [
    ("CCN(CCCOc1ccc(C(=O)/C=C/c2ccc(N(C)C)cc2)c(O)c1)Cc1ccccc1", "Selectivity Index", 6.3),
    ("CCN(CCCOc1ccc(C(=O)/C=C/c2ccc(N(C)C)cc2)c(O)c1)Cc1ccccc1OC", "Selectivity Index", 2.4),
    ("CN(C)c1ccc(/C=C/C(=O)c2ccc(N(C)C)cc2O)cc1", "Selectivity Index", 4),
    ("CCN(CCCCOc1ccc(/C=C/C(=O)c2ccc(N(C)C)cc2O)cc1)Cc1ccccc1OC", "Selectivity Index", 2),
    ("CCN(CCCCCCOc1ccc(C(=O)/C=C/c2ccc(N(C)C)cc2)c(O)c1)Cc1ccccc1", "Selectivity Index", 15),
]

====

Target Or Test System: Butyrylcholinesterase (Rattus norvegicus, UniProt Q9JKC1)
Sequence (Q9JKC1 whole entry): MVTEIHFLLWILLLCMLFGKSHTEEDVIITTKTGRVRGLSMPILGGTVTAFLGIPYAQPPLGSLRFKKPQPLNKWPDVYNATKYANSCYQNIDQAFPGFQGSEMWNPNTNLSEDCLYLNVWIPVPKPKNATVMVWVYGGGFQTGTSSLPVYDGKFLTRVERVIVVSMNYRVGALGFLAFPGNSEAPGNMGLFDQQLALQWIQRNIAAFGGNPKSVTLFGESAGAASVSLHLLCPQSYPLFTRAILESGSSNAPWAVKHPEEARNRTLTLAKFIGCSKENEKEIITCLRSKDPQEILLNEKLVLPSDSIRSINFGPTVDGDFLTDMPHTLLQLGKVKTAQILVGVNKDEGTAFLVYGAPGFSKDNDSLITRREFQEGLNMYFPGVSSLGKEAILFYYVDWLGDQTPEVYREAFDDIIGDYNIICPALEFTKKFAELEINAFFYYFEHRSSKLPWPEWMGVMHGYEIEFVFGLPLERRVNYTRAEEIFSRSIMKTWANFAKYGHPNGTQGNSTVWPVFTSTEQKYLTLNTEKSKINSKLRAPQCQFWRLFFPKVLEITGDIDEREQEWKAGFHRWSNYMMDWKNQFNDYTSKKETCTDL
Method Notes: Inhibition of rat serum BuChE by Ellman's method
Each record here notes measured IC50.

# Molecule, IC50
records = [
    ("CCN(CCCCCCOc1ccc(C(=O)/C=C/c2ccc(N(C)C)cc2)c(O)c1)Cc1ccc(N(C)C)cc1", "> 500 µM"),
    ("CCN(CCCCOc1ccc(/C=C/C(=O)c2ccc(N(C)C)cc2O)cc1)Cc1ccccc1OC", "> 500 µM"),
    ("CCN(CCCOc1ccc(C(=O)/C=C/c2ccc(N(C)C)cc2)c(O)c1)Cc1ccc(N(C)C)cc1", "> 500 µM"),
    ("CCN(CCCCOc1ccc(/C=C/C(=O)c2ccc(N(C)C)cc2O)cc1)Cc1ccccc1N(C)C", "> 500 µM"),
    ("CCN(CCCCOc1ccc(C(=O)/C=C/c2ccc(N(C)C)cc2)c(O)c1)Cc1ccc(N(C)C)cc1", "68.9 µM"),
    ("COc1ccc(C(=O)/C=C/c2ccc(N(C)C)cc2)c(O)c1", "> 500 µM"),
    ("CCN(CCCOc1ccc(C(=O)/C=C/c2ccc(N(C)C)cc2)c(O)c1)Cc1ccccc1", "> 500 µM"),
    ("CCN(CC)CCCOc1ccc(C(=O)/C=C/c2ccc(N(C)C)cc2)c(O)c1", "> 500 µM"),
    ("CN(C)c1ccc(/C=C/C(=O)c2ccc(N(C)C)cc2O)cc1", "> 500 µM"),
]

====

Target Or Test System: UniProt P27338
Sequence (P27338 whole entry): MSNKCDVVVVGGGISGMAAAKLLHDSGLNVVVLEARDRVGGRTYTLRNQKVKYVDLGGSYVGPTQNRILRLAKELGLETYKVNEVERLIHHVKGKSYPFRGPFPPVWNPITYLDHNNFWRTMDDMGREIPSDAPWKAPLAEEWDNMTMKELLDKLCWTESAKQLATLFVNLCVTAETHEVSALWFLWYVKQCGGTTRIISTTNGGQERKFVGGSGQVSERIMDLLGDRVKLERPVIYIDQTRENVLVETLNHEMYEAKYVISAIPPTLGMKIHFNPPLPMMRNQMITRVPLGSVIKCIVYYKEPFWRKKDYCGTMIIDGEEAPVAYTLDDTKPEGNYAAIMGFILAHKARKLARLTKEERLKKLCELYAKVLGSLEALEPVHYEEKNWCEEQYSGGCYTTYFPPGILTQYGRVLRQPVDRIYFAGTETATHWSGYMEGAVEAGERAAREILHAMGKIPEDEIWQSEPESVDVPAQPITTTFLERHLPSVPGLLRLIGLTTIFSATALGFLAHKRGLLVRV
Method Notes: Inhibition of human recombinant MAO-B by multimode plate reader assay

# Molecule, IC50 (µM)
data = [
    ("CCN(CCCCOc1ccc(C(=O)/C=C/c2ccc(N(C)C)cc2)c(O)c1)Cc1ccccc1OC", 1.1),
    ("CN(C)c1ccc(/C=C/C(=O)c2ccc(N(C)C)cc2O)cc1", 12.1),
    ("CCN(CCCOc1ccc(C(=O)/C=C/c2ccc(N(C)C)cc2)c(O)c1)Cc1ccc(N(C)C)cc1", 13.7),
    ("COc1ccc(C(=O)/C=C/c2ccc(N(C)C)cc2)c(O)c1", 0.21),
    ("CCN(CCCOc1ccc(C(=O)/C=C/c2ccccc2)c(O)c1)Cc1ccccc1N(C)C", 0.8),
    ("CCN(CCCCCCOc1ccc(C(=O)/C=C/c2ccc(N(C)C)cc2)c(O)c1)Cc1ccccc1OC", 0.7),
    ("CCN(CCCCOc1ccc(C(=O)/C=C/c2ccc(N(C)C)cc2)c(O)c1)Cc1ccccc1", 8.9),
    ("CCN(CCCOc1ccc(C(=O)/C=C/c2ccc(N(C)C)cc2)c(O)c1)Cc1ccccc1OC", 10.8),
    ("CCN(CCCOc1ccc(C(=O)/C=C/c2ccc(N(C)C)cc2)c(O)c1)Cc1ccccc1", 13.1),
    ("CCN(CCCCCCOc1ccc(C(=O)/C=C/c2ccc(N(C)C)cc2)c(O)c1)Cc1ccc(N(C)C)cc1", 2.3),
    ("COc1ccc(/C=C/C(=O)c2ccc(N(C)C)cc2O)cc1", 13.3),
    ("CCN(CCCCOc1ccc(/C=C/C(=O)c2ccc(N(C)C)cc2O)cc1)Cc1ccccc1N(C)C", 4.3),
    ("CCN(CCCCOc1ccc(C(=O)/C=C/c2ccc(N(C)C)cc2)c(O)c1)Cc1ccccc1N(C)C", 1),
    ("CCN(CCCCOc1ccc(C(=O)/C=C/c2ccc(N(C)C)cc2)c(O)c1)Cc1ccc(N(C)C)cc1", 2.4),
    ("CCN(CCCOc1ccc(C(=O)/C=C/c2ccc(N(C)C)cc2)c(O)c1)Cc1ccccc1N(C)C", 3.2),
    ("CCN(CCCCCCOc1ccc(C(=O)/C=C/c2ccc(N(C)C)cc2)c(O)c1)Cc1ccccc1N(C)C", 2.1),
    ("CCN(CC)CCCOc1ccc(C(=O)/C=C/c2ccc(N(C)C)cc2)c(O)c1", 4.1),
    ("CCN(CCCCOc1ccc(/C=C/C(=O)c2ccc(N(C)C)cc2O)cc1)Cc1ccccc1OC", 4.6),
    ("CCN(CCCCCCOc1ccc(C(=O)/C=C/c2ccc(N(C)C)cc2)c(O)c1)Cc1ccccc1", 2.1),
]

====

Target Or Test System: Acetylcholinesterase (Rattus norvegicus)
Sequence (P37136 whole entry): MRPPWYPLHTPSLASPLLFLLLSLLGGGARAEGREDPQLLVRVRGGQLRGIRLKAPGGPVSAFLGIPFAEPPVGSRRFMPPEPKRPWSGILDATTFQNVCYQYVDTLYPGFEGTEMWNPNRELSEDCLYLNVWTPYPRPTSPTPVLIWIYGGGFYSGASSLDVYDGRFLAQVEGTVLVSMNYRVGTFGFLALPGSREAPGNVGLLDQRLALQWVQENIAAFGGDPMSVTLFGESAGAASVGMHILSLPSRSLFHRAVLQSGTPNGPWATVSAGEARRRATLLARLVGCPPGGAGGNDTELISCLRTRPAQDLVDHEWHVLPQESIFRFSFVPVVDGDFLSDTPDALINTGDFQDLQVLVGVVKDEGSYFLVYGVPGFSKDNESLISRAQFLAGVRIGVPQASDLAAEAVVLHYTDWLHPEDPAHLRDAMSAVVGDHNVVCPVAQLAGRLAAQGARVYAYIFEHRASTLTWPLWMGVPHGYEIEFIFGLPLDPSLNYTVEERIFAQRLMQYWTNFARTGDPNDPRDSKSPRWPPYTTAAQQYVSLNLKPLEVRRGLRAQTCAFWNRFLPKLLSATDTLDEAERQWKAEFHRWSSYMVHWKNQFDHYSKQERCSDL
Measurement Name: IC50 (µM)

# Molecule, Measurement Name, Reading Unit, Limit Qualifier, Obs Value
data = [
    ("CCN(CCCCOc1ccc(C(=O)/C=C/c2ccc(N(C)C)cc2)c(O)c1)Cc1ccc(N(C)C)cc1", "IC50", "µM", "=", 1.35),
    ("CCN(CCCCOc1ccc(/C=C/C(=O)c2ccc(N(C)C)cc2O)cc1)Cc1ccccc1OC", "IC50", "µM", "=", 0.71),
    ("CCN(CCCOc1ccc(C(=O)/C=C/c2ccc(N(C)C)cc2)c(O)c1)Cc1ccc(N(C)C)cc1", "IC50", "µM", "=", 2.47),
    ("CCN(CCCCOc1ccc(C(=O)/C=C/c2ccc(N(C)C)cc2)c(O)c1)Cc1ccccc1", "IC50", "µM", "=", 1.39),
    ("CCN(CCCOc1ccc(C(=O)/C=C/c2ccc(N(C)C)cc2)c(O)c1)Cc1ccccc1", "IC50", "µM", "=", 1.44),
    ("CCN(CCCCCCOc1ccc(C(=O)/C=C/c2ccc(N(C)C)cc2)c(O)c1)Cc1ccccc1", "IC50", "µM", "=", 4),
    ("CCN(CCCCCCOc1ccc(C(=O)/C=C/c2ccc(N(C)C)cc2)c(O)c1)Cc1ccc(N(C)C)cc1", "IC50", "µM", "=", 1.37),
    ("CN(C)c1ccc(/C=C/C(=O)c2ccc(N(C)C)cc2O)cc1", "IC50", "µM", ">", 500),
    ("CCN(CCCCOc1ccc(C(=O)/C=C/c2ccc(N(C)C)cc2)c(O)c1)Cc1ccccc1OC", "IC50", "µM", "=", 0.65),
    ("CCN(CCCCOc1ccc(C(=O)/C=C/c2ccc(N(C)C)cc2)c(O)c1)Cc1ccccc1N(C)C", "IC50", "µM", "=", 0.13),
    ("CCN(CCCOc1ccc(C(=O)/C=C/c2ccccc2)c(O)c1)Cc1ccccc1N(C)C", "IC50", "µM", "=", 0.31),
]
